System: A549
assayExplanation: Antiproliferative activity against human A549 cells by MTT assay
Format: functional
Classify: True when GI50 is strictly less than 3000 nM; False when GI50 is not.

QUERY: Regarding CC(C)=C[C@H]1C[C@H](C)[C@]2(CC[C@]3(C)C[C@H]4c5c(cnnc5C[C@@]4(C)O)CC[C@H]32)O1 , kindly confirm whether its GI50 is beneath 3000 nM.
RESULT: False

QUERY: Regarding C[C@H]1C[C@H]([C@H](Br)C(C)(C)OCc2cn(Cc3ccccc3)nn2)O[C@@]12CC[C@]1(C)C[C@H]3[C@H](C(=O)C[C@@]3(C)O)/C(C=O)=C\C[C@H]12 , kindly confirm whether its GI50 is beneath 3000 nM.
RESULT: True

QUERY: Regarding CCOC1O[C@@]2(OCC)C[C@@](C)(O)[C@H]3C[C@@]4(C)CC[C@@]5(O[C@@H](C=C(C)C)C[C@@H]5C)[C@@H]4C/C=C/1[C@H]32 (mixture of isomers) , kindly confirm whether its GI50 is beneath 3000 nM.
RESULT: True

QUERY: Regarding CCOC(C)(C)[C@@H](Br)[C@H]1C[C@H](C)[C@]2(CC[C@]3(C)C[C@H]4[C@H](C(=O)C[C@@]4(C)O)/C(C=O)=C\C[C@H]32)O1 , kindly confirm whether its GI50 is beneath 3000 nM.
RESULT: True

QUERY: Regarding CC(C)=C[C@H]1C[C@H](C)[C@]2(CC[C@]3(C)C[C@H]4c5c(cn(CCCCCCn6cc7c8c6C[C@@](C)(O)[C@H]8C[C@@]6(C)CC[C@@]8(O[C@@H](C=C(C)C)C[C@@H]8C)[C@@H]6/C=C\7)c5C[C@@]4(C)O)/C=C\[C@H]32)O1 , kindly confirm whether its GI50 is beneath 3000 nM.
RESULT: False

QUERY: Regarding C#CCCCCOC(C)(C)[C@@H](Br)[C@H]1C[C@H](C)[C@]2(CC[C@]3(C)C[C@H]4[C@H](C(=O)C[C@@]4(C)O)/C(C=O)=C\C[C@H]32)O1 , kindly confirm whether its GI50 is beneath 3000 nM.
RESULT: True

QUERY: Regarding CCCO[C@H]1O[C@@]2(OCCC)C[C@@](C)(O)[C@H]3C[C@@]4(C)CC[C@@]5(O[C@@H](C=C(C)C)C[C@@H]5C)[C@@H]4C/C=C/1[C@H]32 , kindly confirm whether its GI50 is beneath 3000 nM.
RESULT: True

QUERY: Regarding CC(C)=C[C@H]1C[C@H](C)[C@]2(CC[C@]3(C)C[C@H]4[C@H](C(=O)C[C@@]4(C)O)/C(C=O)=C\C[C@H]32)O1 , kindly confirm whether its GI50 is beneath 3000 nM.
RESULT: True

QUERY: Regarding CC(C)=C[C@H]1C[C@H](C)[C@]2(CC[C@]3(C)C[C@H]4c5c(cn(CCc6ccc(O)cc6)c5C[C@@]4(C)O)/C=C\[C@H]32)O1 , kindly confirm whether its GI50 is beneath 3000 nM.
RESULT: False

====

Record form. Attribute: log10 of GI50. Fill in for each entry.
System: A549
assayExplanation: Antiproliferative activity against human A549 cells by MTT assay
Assay type: functional
Values reflect log10 of reported GI50 (µM).

QUERY: I have this compound here, CC(=O)O[C@]1(C)Cc2occ3c2[C@@H]1C[C@@]1(C)CC[C@@]2(O[C@@H](C=C(C)C)C[C@@H]2C)[C@@H]1/C=C\3 , and I need its recorded log10 of GI50.
RESULT: 0.78

QUERY: I have this compound here, C[C@H]1C[C@H](C2OC2(C)C)O[C@@]12CC[C@]1(C)C[C@H]3[C@H](C(=O)C[C@@]3(C)O)/C(C=O)=C\C[C@H]12 (mixture of isomers) , and I need its recorded log10 of GI50.
RESULT: -0.22

QUERY: I have this compound here, CC(C)=C[C@H]1C[C@H](C)[C@]2(CC[C@]3(C)C[C@H]4c5c(cn(Cc6ccccc6)c5C[C@@]4(C)O)/C=C\[C@H]32)O1 , and I need its recorded log10 of GI50.
RESULT: 1.71

QUERY: I have this compound here, C#CCOC(C)(C)[C@@H](Br)[C@H]1C[C@H](C)[C@]2(CC[C@]3(C)C[C@H]4[C@H](C(=O)C[C@@]4(C)O)/C(C=O)=C\C[C@H]32)O1 , and I need its recorded log10 of GI50.
RESULT: -0.10

QUERY: I have this compound here, CO[C@H]1O[C@@]2(OC)C[C@@](C)(O)[C@H]3C[C@@]4(C)CC[C@@]5(O[C@@H](C=C(C)C)C[C@@H]5C)[C@@H]4C/C=C/1[C@H]32 , and I need its recorded log10 of GI50.
RESULT: -0.52

QUERY: I have this compound here, CC(C)=C[C@H]1C[C@H](C)[C@]2(CC[C@]3(C)C[C@H]4[C@H](C(=O)C[C@@]4(C)O)C(/C=C/C#N)=C\C[C@H]32)O1 , and I need its recorded log10 of GI50.
RESULT: 1.43

QUERY: I have this compound here, CC(C)=C[C@H]1C[C@H](C)[C@]2(CC[C@]3(C)C[C@@H]4C(C)=CC(=O)[C@H]4/C(C=O)=C\C[C@H]32)O1 [3-ANHYDRO-6-EPI-OPHIOBOLIN A] , and I need its recorded log10 of GI50.
RESULT: 0.95

QUERY: I have this compound here, COC(=O)/C=C/C1=C/C[C@@H]2[C@](C)(CC[C@@]23O[C@@H](C=C(C)C)C[C@@H]3C)C[C@H]2[C@@H]1C(=O)C[C@@]2(C)O , and I need its recorded log10 of GI50.
RESULT: 1.77

QUERY: I have this compound here, C#CCCCOC(=O)/C=C/C1=C/C[C@@H]2[C@](C)(CC[C@@]23O[C@@H](C=C(C)C)C[C@@H]3C)C[C@H]2[C@@H]1C(=O)C[C@@]2(C)O , and I need its recorded log10 of GI50.
RESULT: 1.18
